Origin of values: ChEMBL document CHEMBL1201862

- System: SNB-75
- assayExplanation: NCI tumour cell line growth inhibition, 48 h
Calls of active or inactive are those of the source. No stated cut-off is given here; in the data, active = GI50 up to about 1.1 µM and inactive = higher.
assayEndpoint: GI50

Task item: Reported GI50 for SNB-75, given COc1cc(O)cc2oc(-c3ccc(O)cc3)cc(=O)c12 ?
Reply: 14 µM (inactive)

Task item: Query COC(=O)c1scc(N)c1-n1ccc(=O)[nH]c1=O next
Reply: > 100 µM (inactive)

Task item: Queued: COC(=O)c1cn(CC(O)CCl)nn1 (stereo unspecified)
Reply: > 100 µM (inactive)

Task item: Same read-out for CC(=O)CC1(OC(=O)C2C(C=C(C)C)C2(C)C)C(=O)Nc2ccccc21 (stereo unspecified) ?
Reply: 51.3 µM (inactive)

Task item: Check Cc1ccc(Nc2nc(-c3ccc(-c4ccc([N+](=O)[O-])cc4)o3)cs2)cc1 too.
Reply: 50.5 µM (inactive)

Task item: Same again, this time with CC12OC1(C)C1C(=O)OCC1C2=O (stereo unspecified)
Reply: 99.3 µM (inactive)

----------
Assign GI50 to each entry below.
- System: SNB-19
- assayExplanation: NCI tumour cell line growth inhibition, 48 h
Active and inactive are the calls of the source. No stated cut-off is given here; in the data, active = GI50 up to about 1.1 µM and inactive = higher.

Task item: What GI50 value was documented for this molecule, CSc1ccc2c(cc1=O)[C@@H](NC(=O)c1ccc(F)cc1)CCc1cc(O)c(O)c(O)c1-2 ?
Reply: > 100 µM (inactive)

Task item: What do you have for COC(=O)c1c(C)cccc1C1CN=NC12Cc1c(C)cccc1C2=O (stereo not given) ?
Reply: > 100 µM (inactive)

Task item: Proceed to N#CCc1n[nH]c2nc(SCc3ccccc3)nc(N3CCCCC3)c12
Reply: 18.9 µM (inactive)

Task item: One more molecule: C[C@@H]1[C@@H](c2ccccc2)O[B-](c2ccccc2)(c2ccccc2)[N+]1(C)C
Reply: > 100 µM (inactive)

Task item: Again, but for O=c1[nH]c2cc([N+](=O)[O-])ccc2nc1/C(=N/Nc1ccccc1)C(O)c1ccccc1Cl (stereo not given)
Reply: > 100 µM (inactive)

Task item: Moving on to the next molecule: COc1c(Br)cc(CC(N)=O)c(O)c1Br
Reply: > 100 µM (inactive)

Task item: Cool, now Oc1c2c(c(O)c3ccccc13)C1(N=N2)c2ccccc2Oc2ccccc21
Reply: 16.2 µM (inactive)

Task item: Also check CC(=O)N1c2cc(/N=N/N(C)C)ccc2NC(=O)CC1C (stereo not given)
Reply: > 100 µM (inactive)

Task item: Also need c1ccc([P+](CCCCCCCC[P+](c2ccccc2)(c2ccccc2)c2ccccc2)(c2ccccc2)c2ccccc2)cc1 , thanks.
Reply: 0.396 µM (active)

Task item: Can you check CCc1cccc(C(C)CC)c1NC(=O)C(=O)C(CC(=O)Nc1ccc(Cl)c(Cl)c1)C(=O)OC (stereo not given) next?
Reply: > 100 µM (inactive)

----------
- Tested on: COLO 205
- assayExplanation: NCI tumour cell line growth inhibition, 48 h
Activity calls are given as the source filed them. Rule as the data show it: active = GI50 up to about 1.1 µM and inactive = higher.
# output must be one of Yes = active, No = inactive

Task item: For O=[N+]([O-])/C(C(Cl)=C(Cl)Cl)=C1\NCCO1 , which call appears in the assay record?
Reply: No

Task item: Now try Cc1c2ccncc2cc2c1sc1ccncc12 .
Reply: No

Task item: Field entry: CNC(=O)N(CCC#N)CCN(C(=O)N(C)C)c1ccccc1
Reply: No

Task item: Note, next up: Cn1c2ccccc2c2nc3ccccc3c(Cl)c21
Reply: No

Task item: Also check COc1ccc(N2C(=O)C3c4[nH]c5ccc(C)cc5c4C4CCC(c5ccccc5)CC4C3C2=O)cc1 (stereo not given)
Reply: No

Task item: Now this one: Nc1ccc(Cc2ccc(/N=C\c3ccc(OCc4cccc(COc5ccc(/C=N\c6ccc(Cc7ccc(N)cc7)cc6)cc5)n4)cc3)cc2)cc1
Reply: No

Task item: Entry to check: CC(C)(C)NC1C2CCC(C)(C1O)C2(C)C (stereo not given)
Reply: No

Task item: Please give the result for CCOc1ccc(N2C(=O)C3c4[nH]c5ccccc5c4C4CCC(C(C)(C)C)CC4C3C2=O)cc1 (stereo not given) too.
Reply: No

Task item: O=C(O)C#CCO ?
Reply: No

Task item: Item: CC(=O)O[C@H]1C[C@H](O[C@H]2[C@@H](O)C[C@H](O[C@H]3[C@@H](O)C[C@H](O[C@H]4CC[C@@]5(C)[C@H](CC[C@@H]6[C@@H]5C[C@@H](O)[C@]5(C)[C@@H](C7=CC(=O)OC7)CC[C@]65O)C4)O[C@@H]3C)O[C@@H]2C)O[C@H](C)[C@H]1O[C@@H]1O[C@H](CO)[C@@H](O)[C@H](O)[C@H]1O [LANATOSIDE C]
Reply: Yes
